# PBM binding z-score listing for each entry below
- System: LXRa homodimer (NR concentration 270 nM)
- Protocol: PBM binding z-score (relative to random genomic background probes); higher = stronger binding; sequences stand for … in GC…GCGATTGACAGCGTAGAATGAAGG
The answer should be a number; do not append a unit.

Reference set (5 entries):
Residue Sequence	Target Entity	PBM binding z-score
ATATGTAGGTTTAGGGTCATTCAGGTTGGTTCGC	LXRa homodimer (NR concentration 270 nM)	1.71
AAAGACAGGTGATGAAGGTAACTCAGGCTATCAT	LXRa homodimer (NR concentration 270 nM)	0.0332
TCTCGGAGGACACGAAGATCAGAGCTTTCCAGAG	LXRa homodimer (NR concentration 270 nM)	-0.688
TGTCAAAGTTCAAAGTTAACGTAAGTATCCACAC	LXRa homodimer (NR concentration 270 nM)	5.46
AGTTAAAGTTCATCTAGGTAACGTAAGATATGCT	LXRa homodimer (NR concentration 270 nM)	5.76

Task: For the sequence `TCTTGTAGACCAGCAGGTTAAGAAAGCTGGCCAA` , what PBM binding z-score is on record?
Output: -0.542

Task: Recorded PBM binding z-score of `TAGCCTAGGTCAGATCGGGCCAGTATCCGCTATA` , please.
Output: -0.375

Task: # input sequence: `TATACAGGCTCAAAGGCCAGAGTACGAATGTCGA` ; wanted: its PBM binding z-score
Output: -0.184

Task: So what's the measured PBM binding z-score for this one? `GCGACTGGGGCATCAGCAGGTTACCATCACTTAA`
Output: -0.321

Task: Query (sequence): `CCTCGGAGGACAGAAGGCCAGAGCTGTCCGCTTT` ; field requested: PBM binding z-score
Output: -1.17

Task: What value of measured PBM binding z-score is listed for `CCTACTGGGCCACGAAAGGTCATTGAGTCAGTGA` ?
Output: 5.25

Task: Which measured PBM binding z-score value corresponds to `TCTCGGAGGACACGAAAGATCAGAGCTCGACATC` ?
Output: -0.431

Task: Data request, read-out PBM binding z-score, for `TTACCAAGGTGAAGGTCGCTGATCCCTCTGTAGA`
Output: -0.243

Task: What value of PBM binding z-score has been recorded for this entry: `CCTTACGGGTCACGAGGTTATAACACGACGAGCG`
Output: 0.527

Task: What value of PBM binding z-score has been reported for the following sequence? `ATATGTCGGTTAAGGGTCATTCAGGTTGGTTCGC`
Output: 3.12

Task: State the recorded PBM binding z-score for this entry: `TAGCCTAGGTCATGCAGGGGCCAGTATAGAAAGC`
Output: -0.0993

Task: Param item = `GCTCGGAAGACAAGGTCAGAGCTTTGTCCGTAGA` ; retrieve measured PBM binding z-score.
Output: -0.528

Task: Form field: reported PBM binding z-score of `CCAGACAGGTGAGAGGGTAACTCAGCCTCGATTA`
Output: -0.0244

----------
- Test system: PPARg:RXRa 270nM:90nM, anti-RXR (NR concentration 270 nM, RXRa partner concentration 90 nM)
- Protocol: PBM binding z-score (relative to random genomic background probes); higher = stronger binding; sequences stand for … in GC…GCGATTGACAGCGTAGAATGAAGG
Property Name: PBM binding z-score
Lab note: jot down the number only; don't add units.

Residue Sequence	PBM binding z-score
TAGCCTAGGTCATTGGGCCTGTATAGTACGCATC	2.86

Task: For the sequence `CCTACTGGGCCACGAAAGGTCAATGATTCAGTGA` , what PBM binding z-score is on record?
Output: 4.6

Task: Quick check: PBM binding z-score of `CGTCCAAGGTCAAGGTTAGTGAAAGAGACTCGAA` ?
Output: 5.18

Task: Would you mind telling me what PBM binding z-score value was observed for `AGAATGTGGTTATTAAGATCAGGGAATTGCGGTC` ?
Output: 0.078

Task: Look up PBM binding z-score: `CCTCGGAGGACAACAGGAAGTCAGAGCTGCCAGA`
Output: -0.726

Task: What does the record list as PBM binding z-score for `TCTAGTTGGTCACGGAGGTCACACAGGACGGGTA` ?
Output: 3.76

Task: Give the measured PBM binding z-score of `TCTATTAGGTGAAGGGCAACCGACGAGTCCGTTT` .
Output: 5.18

----------
- Test system: RARa homodimer (NR concentration 270 nM)
- Protocol: PBM binding z-score (relative to random genomic background probes); higher = stronger binding; sequences stand for … in GC…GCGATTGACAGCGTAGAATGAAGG
Use met when the recorded PBM binding z-score is no lower than 0.3; use not met when it is lower.

Answered cases to consult:
Residue Sequence	Target Entity	Label Class
CCTTACGGGTCACTCCAGGTTATAGGATCGGAGT	RARa homodimer (NR concentration 270 nM)	met
GGAACGAGGGCATTCGAGTTAATAGCATGGCGAT	RARa homodimer (NR concentration 270 nM)	not met
TCGAGTAGGTTAGGGGCATTCGGAATGGCGTCGA	RARa homodimer (NR concentration 270 nM)	not met
CAAACTAGGTCACCGGAAGGTCAAAGGCCGCATG	RARa homodimer (NR concentration 270 nM)	met
TCATATAGGTAAGCAGGTGAAAGTCCGTAAGTTA	RARa homodimer (NR concentration 270 nM)	not met
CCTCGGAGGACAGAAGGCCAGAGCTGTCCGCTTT	RARa homodimer (NR concentration 270 nM)	not met

Task: Can `TCTGCGAGGTCAACGATGGTCAGCTAATCTGCTA` be said to have PBM binding z-score at or above 0.3?
Output: not met

Task: For this sequence, is measured PBM binding z-score 0.3 or higher? `CCTGCTGGGTCAATGGTCAGCTAAAGCAGCTCGC`
Output: not met

Task: For this sequence, is measured PBM binding z-score 0.3 or higher? `CCCTACGGGTCACTCCAGGTTATAGCATCGGAGT`
Output: met

Task: Answer whether PBM binding z-score of `CAAACTAGGTCACCGGAAGGTCGAAGTCCGCATG` is greater than or equal to 0.3.
Output: met

Task: Textbook exercise: given the entry `CCTACGGGGCCATCAGGTCATTGATATCAACGTT` , state whether its PBM binding z-score is greater than or equal to 0.3.
Output: met

Task: Could you verify whether the entry `CCTTGCAGGCCAGGGTCACTCAAGCATTTCGCTT` shows PBM binding z-score of no less than 0.3?
Output: not met

Task: State whether the measured PBM binding z-score reaches 0.3, counting equality as reaching it, for `TCATATAGGTAACAGGTGAAAGTCGGTGTGGTAA`
Output: met

Task: Dear colleague, could you confirm whether `TCTAGTTGGTCACGGAGGTAACACACGACGGGTA` has PBM binding z-score at or above 0.3?
Output: met

Task: Check this sequence for PBM binding z-score at or above 0.3: `ATACCAAGGTGATCGTGACGTCGTTGATACTAAC`
Output: met

Task: Is PBM binding z-score for `TGAATGAGGTTAAAGATCAGGGGACGTGGCGTCG` at or above 0.3?
Output: not met

Task: Does the reported PBM binding z-score for `ATCTCTAGGTAAGACTCAGTCCAGTGAAGAACGC` fall at or above the 0.3 mark?
Output: met

Task: Quick check, PBM binding z-score >= 0.3? `CCTGCTAGGTCATGGTCAGCAAATCTACAGTATG`
Output: not met

Task: Hi, just wondering whether `CCTTACGGGTCACTTCAGGTTATAGCATCGGAGT` shows PBM binding z-score of 0.3 or higher.
Output: met

Task: Hello, I need to know if `TCTTGTAGATAAACAGGAGGTTAAGAAAGATCGA` has measured PBM binding z-score not below 0.3. Thanks!
Output: met

----------
- System: VDR homodimer (NR concentration 270 nM)
- Protocol: PBM binding z-score (relative to random genomic background probes); higher = stronger binding; sequences stand for … in GC…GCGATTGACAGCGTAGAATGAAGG
Property Name: PBM binding z-score
When you answer, write just the number.

Below, 3 sequences whose answers are already recorded.
Residue Sequence	Value Measured
AGAACAAGGGCAATGAGTTGATAGCACGGGTGGC	2.73
CAAACTAGGTCAGAGAGGTCAAAGTCCGTGCGTA	6.12
CGTCCAAGGTCAGAGATGTCAGTGAATGCCGAGT	1.82

Task: Reported PBM binding z-score for `TCATATAGTTAAACAGGTGAAAGTCCGTAAGTTA` : what is it?
Output: 0.667

Task: I am curious: what PBM binding z-score value has been reported for `AGGATGAGGTTACCAAAGATCAGGGAAACGCTTG` ?
Output: 0.534

Task: // returns reported PBM binding z-score for input `CCTACTGGGCGATCAGGTCATTGATATCAACGTT`
Output: 1.53

Task: I'd like to know its PBM binding z-score. The sequence in question is `GCGACTGGGGCAAAGCAGGTTACCTTAAGGTTGG`
Output: -0.116

Task: # lookup: PBM binding z-score of `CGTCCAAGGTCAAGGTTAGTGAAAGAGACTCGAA`
Output: 1.85

Task: Bench note: what PBM binding z-score did `TCTAGTTTGTCACGGAGGTCACACACGACGGGTA` show?
Output: 3.15

Task: Param item = `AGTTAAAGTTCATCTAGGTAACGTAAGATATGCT` ; retrieve measured PBM binding z-score.
Output: 5.32

Task: Query (sequence): `CCGACTGTGGCAAAGGTTACCATACTCAGTACGA` ; field requested: PBM binding z-score
Output: 0.185

Task: Requested field: PBM binding z-score. Item: `ACAGACAGGGGATGAAGGTAACTCAGGCTATCAT`
Output: -0.173

Task: Fill in: PBM binding z-score of `CGTCAAAGTTCAACTAAGGTACCGTAAAGCACGC` is ___
Output: 4.06

Task: Reported PBM binding z-score for `CGAACGAGGGCACGAGTTGATAGCAAATGCCGAT` : what is it?
Output: 1.58

Task: Report PBM binding z-score for `ATAAGTAGGTTAAGGGTCATTCAGGTTGGTTCGC` please.
Output: 4.94

Task: Give the measured PBM binding z-score of `CGAACTAGGTCATTGATAGGACAGTGAATAGTAA` .
Output: 1.35

Task: Value lookup for PBM binding z-score; key = `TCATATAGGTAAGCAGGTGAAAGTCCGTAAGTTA`
Output: -0.0581

Task: Reported PBM binding z-score for `TCTGCTAGATCAGTTGGTCAGCTAACGAGCTGCC` : what is it?
Output: -1.49

Task: Could you tell me which PBM binding z-score is on file for `ACTAGCAGGCCAAGTTTGGGTCCCTCAAACAAAG` ?
Output: -0.397

Task: For `CGTCCAAGGTCAATGCCAGGTCAGTGAAAGCATT` , what is its reported PBM binding z-score?
Output: 3.03

Task: Which value of PBM binding z-score has been reported for `CAAACTAAGTCAAAGGTCAAAGTCGAGCCAACCA` in the records?
Output: 2.93

Task: # input sequence: `GCTTGGAGATCAAGGTTAAGAAAGACTAAGCTAA` ; wanted: its PBM binding z-score
Output: 0.0219

Task: Any idea what PBM binding z-score was measured for `CTACCAAGGTGAACAAGGCCGTTGATTACTATTC` ?
Output: 0.0898

Task: Report PBM binding z-score for `TAGCCAAGGTCATTGGGCCAGTATAGTACGCATC` please.
Output: 3.47

Task: Value lookup for PBM binding z-score; key = `ATCTCTAGGTAACAAGTTCAGTAAAAGAGAGGAC`
Output: 2.15
